- System: Trypanosoma cruzi
- experiment: Trypanosoma cruzi phosphomannomutase and mannose-1-phosphate guanylyltransferase assay
- Assay type: functional
- Set-up: scale not given: direction of the effect not stated beside the values
- measurement-conditions: 10 µM
measured-metric: Percent Effect (%)
Give your result in % as a bare value.

*Q* What measured Percent Effect goes with O=C(Cc1cccc(F)c1)N1CCCCC1c1ccn2ccnc2n1 (configuration not stated) ?
*A* -3.16

*Q* Moving on to CCC(CNC(=O)c1cc(OC)ccc1Br)N1CCc2ccccc2C1 (configuration not stated)
*A* -7.14

*Q* Moving on to c1ccc(CN2CCCC2Cn2cncn2)nc1 (configuration not stated)
*A* 3.87

*Q* Moving on to `COC(=O)c1cc(OCC2CCC2)cc(C(=O)N[C@@H]2CNCC[C@H]2O)c1`
*A* -0.392

*Q* Moving on to `O=C(NCCCN1CCOCC1)c1cc(-c2ccco2)[nH]n1`
*A* -0.794

*Q* Moving on to `CN(C)S(=O)(=O)N1CCC(Oc2ccccn2)CC1`
*A* -6.41

*Q* Moving on to CCc1cnc(CN(C)C2CCN(CCc3cccs3)C2)o1 (configuration not stated)
*A* -2.89

*Q* Moving on to `CC(C)c1nccn1-c1cccc(C2CCN(C)CC2)n1`
*A* 4.54

*Q* Moving on to `O=C(Cc1ccc2c(c1)OCCO2)NC1CCCC1`
*A* -11.2

*Q* Moving on to COc1cccc(C2CCCN2C(=O)c2cc3c([nH]c2=O)CCC3)c1 (configuration not stated)
*A* 1.17

*Q* Moving on to COCc1nc(C(=O)N2CCCC2c2ccccc2C)cs1 (configuration not stated)
*A* 0.513

*Q* Moving on to CN(Cc1ccc(F)cc1)C(=O)CN1CCOC(Cn2cncn2)C1 (configuration not stated)
*A* -7.65

---

For each of the compounds below, state its Percent Effect.
- test-system: Tyrosyl-tRNA synthetase, putative (Trypanosoma cruzi (strain CL Brener)) (UniProt Q4DSP6)
- Sequence (Q4DSP6 as listed by the source): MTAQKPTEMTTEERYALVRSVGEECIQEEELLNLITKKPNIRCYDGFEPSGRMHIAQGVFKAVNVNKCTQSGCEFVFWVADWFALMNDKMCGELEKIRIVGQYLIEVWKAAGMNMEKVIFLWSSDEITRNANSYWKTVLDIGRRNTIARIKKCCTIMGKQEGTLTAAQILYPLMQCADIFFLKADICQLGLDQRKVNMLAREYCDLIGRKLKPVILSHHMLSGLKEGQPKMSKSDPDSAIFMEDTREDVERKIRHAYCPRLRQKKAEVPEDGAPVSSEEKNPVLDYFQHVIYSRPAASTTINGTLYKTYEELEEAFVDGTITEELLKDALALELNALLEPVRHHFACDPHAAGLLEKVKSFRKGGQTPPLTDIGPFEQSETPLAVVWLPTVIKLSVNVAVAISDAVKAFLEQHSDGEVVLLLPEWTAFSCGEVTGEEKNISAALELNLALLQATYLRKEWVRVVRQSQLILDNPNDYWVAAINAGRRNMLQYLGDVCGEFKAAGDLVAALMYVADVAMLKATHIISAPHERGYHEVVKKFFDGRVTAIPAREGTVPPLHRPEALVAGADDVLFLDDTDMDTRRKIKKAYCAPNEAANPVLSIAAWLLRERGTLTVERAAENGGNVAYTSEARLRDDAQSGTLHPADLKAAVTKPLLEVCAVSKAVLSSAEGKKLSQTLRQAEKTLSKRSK
- experiment: Trypanosoma cruzi tyrosyl tRNA synthetase (TcYRS) _High Tyrosine SOP; note: in the data most compounds retested in dose-response had high values
- Type: functional
- Design: scale not given: direction of the effect not stated beside the values
- measurement-conditions: 30 µM
Give your result in % as a bare value.

*Q* What measured Percent Effect goes with `O=C(c1ccncc1)N1CCCn2c(CN3CCCCC3)nnc2C1` ?
*A* 5.32

*Q* Moving on to CC(C)OCCN(Cc1cccc(O)c1)C1CCC(O)CC1 (configuration not stated)
*A* 0

*Q* Moving on to CCCNC(=O)NC(=O)CN(CC(C)O)c1ccccc1 (configuration not stated)
*A* 5.71

*Q* Moving on to CC(=O)Nc1nc(CN2CCCC2c2cnn(C)c2)cs1 (configuration not stated)
*A* 7.39

*Q* Moving on to `CCn1cc(N2Cc3nc(N4CCN(C)CC4)ncc3C2=O)cn1`
*A* 6.35

*Q* Moving on to `c1cnc2c(C3CCN(Cc4ccsc4)CC3)n[nH]c2n1`
*A* 3.23

*Q* Moving on to CC(C)c1ccc(C(C)NC(=O)N2CCC(n3cncn3)CC2)cc1 (configuration not stated)
*A* 3.45

*Q* Moving on to `COCCNC(=O)NCCc1ccn(-c2ccccc2)n1`
*A* -4.17

*Q* Moving on to `CN(Cc1cc[nH]n1)C(=O)c1cccc(CCC(C)(C)O)c1`
*A* 0.546

*Q* Moving on to `CCC(=O)N1CCc2[nH]cnc2C12CCN(C(=O)c1snnc1C)CC2`
*A* 0.546

*Q* Moving on to `Cc1nc(N2CCCC2)nc2c1CCN(C(=O)CC1CC1)CC2`
*A* -2.12

*Q* Moving on to COc1cccc2c1OCC(NC(=O)NCc1cccs1)C2 (configuration not stated)
*A* 4.25

*Q* Moving on to `COCCN(C)C[C@@H]1CN(C(=O)c2cccc(C(F)(F)F)c2)C[C@@H]1CO`
*A* 2.65

*Q* Moving on to `CN(Cc1ccccn1)C1CC2(CCN(Cc3cccnc3)CC2)C1`
*A* 4.25

*Q* Moving on to `Cc1cccc(NC(=O)CNC(=O)Cn2ncc(Cl)c(Cl)c2=O)c1C`
*A* 11.9

*Q* Moving on to `O=C(NCc1ccc(-n2cncn2)nc1)c1ccoc1`
*A* 4.43

*Q* Moving on to CC(C)S(=O)(=O)N1CCC(c2cc3n(n2)[C@@H](C(F)(F)F)C[C@@H](C)N3)C1 (some centres not stated)
*A* 4.25

*Q* Moving on to `O=C(c1cc[nH]n1)N1CCC(Nc2cccnn2)CC1`
*A* 6.67

*Q* Moving on to `CN(C)Cc1nn(C)c2c1CCN(S(=O)(=O)c1cccs1)C2`
*A* 8.47

*Q* Moving on to `CS(=O)(=O)N[C@@H]1CN(C(=O)c2ccccn2)[C@@H]2CCCO[C@@H]21`
*A* 4.32

*Q* Moving on to CC(=O)N1CCCC(c2ccc(Nc3nc(C)cc(C)n3)cn2)C1 (configuration not stated)
*A* 3.19

*Q* Moving on to `Cc1ccccc1[C@@H]1CN(C(=O)c2ccc3[nH]nnc3c2)C[C@H]1C(=O)O`
*A* 3.12

*Q* Moving on to `COCCCNC(=O)NCc1ccc(C)cc1`
*A* 5.21

*Q* Moving on to CC(Cn1ccnc1)NC(=O)NCCc1ccccn1 (configuration not stated)
*A* 5.39

*Q* Moving on to CCc1noc(C(C)N2CCN(c3ccc(C#N)cn3)CC2)n1 (configuration not stated)
*A* 4.25

*Q* Moving on to `CCOCC(=O)N1C[C@@H](NC(C)=O)[C@H](c2ccc(OC)cc2)C1`
*A* 7.1

*Q* Moving on to `CN(C(=O)C1CCCCC1)[C@@H]1CCC[C@@H](N2CCOCC2)[C@@H]1O`
*A* 1.07

*Q* Moving on to `O=C(C1CCC1)N1CCN(C(=O)c2cnccn2)[C@H]2CS(=O)(=O)C[C@H]21`
*A* 4.76

*Q* Moving on to `Cc1ccsc1CNC(=O)Cc1c(C)nc2c(c1C)c(=O)[nH]n2C`
*A* 2.86

*Q* Moving on to `CCc1ncc2c(n1)CN(Cc1nc(-c3ccccn3)no1)CC2`
*A* 15.3

*Q* Moving on to `O=C(CC1CC1)N1CC[C@H]2[C@@H]1CCC(=O)N2c1cccnc1`
*A* 1.08

*Q* Moving on to `O=C(Cn1cc(I)cn1)N1CCCC1`
*A* 5.29

*Q* Moving on to `COc1ccc(S(=O)(=O)NCc2cccnc2N(C)C)cc1F`
*A* 8.37

*Q* Moving on to Cc1cnn(CC2CN(CC(=O)Nc3sccc3C#N)CCO2)c1 (configuration not stated)
*A* 4.41

*Q* Moving on to COc1cccc(N2CCN(C(=O)C(O)c3cccc(Cl)c3)CC2=O)c1 (configuration not stated)
*A* 4.76

*Q* Moving on to Cc1cnn(CC2CCCN2CC(=O)N(C)Cc2ccc(C)o2)c1 (configuration not stated)
*A* 5.82

*Q* Moving on to `CCOC(=O)c1sc2ccsc2c1CNC(=O)CC`
*A* 4.95

*Q* Moving on to `CC(=O)N1CCC(C(=O)c2cc(C)cnc2N)CC1`
*A* 4.25

*Q* Moving on to `Cc1cc(CNC(=O)N2CCN(c3ccccc3)CC2)no1`
*A* 9.9

*Q* Moving on to CCCC(NC(=O)c1cc(C)n(C2CC2)c1C)c1nnn[nH]1 (configuration not stated)
*A* 8.2

*Q* Moving on to `COc1c(CNC2CCN(c3ncccn3)CC2)c(C(C)C)nn1C`
*A* 6.4

*Q* Moving on to `O=C(N1CCOCC1)N1CCc2ncnc(NC3CC3)c2CC1`
*A* 0.99

*Q* Moving on to CN1N=C(C(=O)N2CCCC(CCc3c(F)cccc3F)C2)CCC1=O (configuration not stated)
*A* 3.7

*Q* Moving on to `CC(C)Oc1ncccc1CNC(=O)c1cc[nH]n1`
*A* 2.46

*Q* Moving on to `Cc1cc(N2CCCN(C(=O)Cc3csc(C)n3)CC2)ccn1`
*A* 2.65

*Q* Moving on to `Cc1noc(C)c1CN1CC[C@@H](OCC2CC2)[C@@H](Cc2ccccc2)C1`
*A* 5.32

*Q* Moving on to NC(=O)c1ccc(NC(=O)CCN2CCCC(N3CCCC3)C2)cc1 (configuration not stated)
*A* 9.9

---

- test-system: Tyrosyl-tRNA synthetase, putative (Trypanosoma cruzi (strain CL Brener)) (UniProt Q4DSP6)
- experiment: Trypanosoma cruzi tyrosyl tRNA synthetase (TcYRS) _High Tyrosine SOP; note: in the data most compounds retested in dose-response had high values
- Type: functional
- Design: scale not given: direction of the effect not stated beside the values
- measurement-conditions: 30 µM
measured-metric: Percent Effect (%)
Give your result in % as a bare value.

*Q* What measured Percent Effect goes with `Cc1ccc(S(=O)(=O)N2C[C@H]3C[C@H](NC(=O)c4ccn(C)n4)[C@H]3C2)cc1` ?
*A* 2.15

*Q* Moving on to `c1cncc(OCc2nnn3c2CN(Cc2ccsc2)CCC3)c1`
*A* -3.12

*Q* Moving on to Cc1c(C2CCCN(C(=O)Cc3ccccn3)C2)n2c(nc1=O)CCC2 (centres undefined)
*A* 6.45

*Q* Moving on to CC(c1cccnc1)N(C)Cc1csc(-c2ccccn2)n1 (centres undefined)
*A* 5.38

*Q* Moving on to `O=C(c1cscn1)N1CCC2(CCN(Cc3cccs3)CC2)C1`
*A* 1.08

*Q* Moving on to `Cc1noc(C)c1CN1CC[C@H]2OCC[C@@H](C(=O)N3CCCO3)[C@@H]2C1`
*A* -1.04

*Q* Moving on to `O=S(=O)(Nc1cnn(C2CCOCC2)c1)c1c(F)cccc1F`
*A* 2.12

*Q* Moving on to CC(C)c1nn(C)c(Cl)c1CNC1CCOc2ccccc21 (centres undefined)
*A* 8.91

*Q* Moving on to `CN(C)C(=O)c1ccc(CNC(=O)NCCN(C)C2CCCC2)cc1`
*A* 7.39

*Q* Moving on to `O=C1COC2(CCN(Cc3cccs3)CC2)CN1c1ccccc1`
*A* 3.12

*Q* Moving on to `CCOc1cccc(C(=O)N2CCN(c3nccc(OC)n3)CC2)c1`
*A* -1.48

*Q* Moving on to `CCS(=O)(=O)NC[C@]12COC[C@H]1CN(Cc1cccc(OC)c1)C2`
*A* 0

*Q* Moving on to O=C(CCOc1cccc(F)c1)N1CCCC(n2cncn2)C1 (centres undefined)
*A* 2.08

*Q* Moving on to CCc1nc(CN(C)CC(c2cccs2)N2CCOCC2)no1 (centres undefined)
*A* 6.93

*Q* Moving on to `CCCNC(=O)CN1CCC(C(=O)Nc2cnn(CC)c2)CC1`
*A* 6.4

*Q* Moving on to `O=C(NCCN1CCCCCC1=O)c1ccn(-c2ccc(F)cc2)n1`
*A* 4.43

*Q* Moving on to `Cn1nc(CNC(=O)C2CCCC2)cc1C1CC1`
*A* 0

*Q* Moving on to CC(Cc1ccco1)NC(=O)Nc1ccc(N2CCOCC2)nc1 (centres undefined)
*A* 3.43

*Q* Moving on to `CCN(Cc1nc(C(C)C)no1)Cc1cccs1`
*A* 1.07

*Q* Moving on to `CCN(CC)Cc1cn2c(n1)CN(C(=O)c1cc(C)on1)CC2`
*A* 2.16

*Q* Moving on to CCOCCN1CCN(Cc2nc(C3CC3)no2)CC1CC (centres undefined)
*A* 3.23

*Q* Moving on to `CC1CCN(S(=O)(=O)NCc2ccccc2Cn2cncn2)CC1`
*A* 3.12

*Q* Moving on to Cc1nn(C)c(C)c1C(=O)N1CCOCC1CC(=O)c1ccco1 (centres undefined)
*A* 0

*Q* Moving on to `CCOc1cc(/C=C/c2ncc(C(=O)O)s2)ccc1O`
*A* 4.17
